- Test system: MS2 coat protein
- ASSAY_INFO: apparent KD of MS2 coat protein; designed switch direction (-1 OFF switch, 1 ON switch): -1; higher = weaker reporter binding
- RECORDED_CONDITIONS: input ligand: FMN 200 uM
OUTCOME_MEASURE: apparent KD of MS2 coat protein (nM)
Numeric answer only, unit nM assumed.

RECORD_SEQUENCE: GCGUACUGAGGAUAUACAUGAGGAUCACCCAUGUGAAGAAGAAAGUAGUGAUGGUUAAGUAGAAGGCAGUAUGC [JR_Ex3_Sub063] (Eterna round: R97, puzzle: Exclusion 3)
OUTCOME_MEASURE: apparent KD of MS2 coat protein
REPORTED_RESULT: 411

RECORD_SEQUENCE: AAACCUGAAGUUAGGAUAUGAAGUAUCACUAUACUUCAGAAGGAACUUGAGGAUCACCCAAGUAGCCGUGAGGC [jl-bmx4.4.66 ViennaUCT mod] (Eterna round: R97, puzzle: Brourd's mod of Exclusion 4)
OUTCOME_MEASURE: apparent KD of MS2 coat protein
REPORTED_RESULT: 110

RECORD_SEQUENCE: CAUGAUUGGCGAGGAUAUUGACCUAGUUCGCGACGAGAAGGCGCCUGUCACAUGAGGAUCACCCAUGUGAAUCUGGUGAAAGAG [Ex NG1 #91] (Eterna round: R96, puzzle: Exclusion NG 1)
OUTCOME_MEASURE: apparent KD of MS2 coat protein
REPORTED_RESULT: 14.5

// switching to the query sequence
q: May I ask what apparent KD of MS2 coat protein has been recorded for CCCACAAGCUUUUUGCUCGACAUGAGGAUCACCCAUGUUGAAUGGGUUAUAUGUGUGUGAUACAUAUAUAUGUACCU [-24.7, -47.9 kcal, A 26%] (Eterna round: R97, puzzle: Sensor, turn-off variant 1) ?
a: 23.2

* * *

- System: K4 kissing-loop RNA reporter;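 further: bound reporter read as fluorescence of individual clusters on recovered sequencing chips by microscopy, with normalized cluster intensities fitted with a binding model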
- ASSAY_INFO: apparent KD of K4 kissing-loop reporter; higher = weaker reporter binding
- RECORDED_CONDITIONS: Eterna round: R107; input ligand: theophylline 20 uM
OUTCOME_MEASURE: apparent KD of K4 kissing-loop reporter (µM)
Numeric answer only, unit µM assumed.

RECORD_SEQUENCE: AGUACAAUGGCGGCCGCCACUCAACGCAGAUCAAAGAUCUGCGUUCACUCAGUGAUGUUGAGUGAGAGGACCGGGCCUUUGUACA [Omei KL Tryp B SS B v5]
REPORTED_RESULT: 0.171

q: May I ask what apparent KD of K4 kissing-loop reporter has been recorded for AAAUAGAUCAGUCAACCAGUGAUGUUGGAAGGAGCGUGCGAAAGCACAGGUAGGUCGCCAUAAUAAAAUUGGCUGAUCAAAAUAA ?
a: 0.614

q: Next: UGACUGGACUGAAGGAGCGCUAAACUCCUAGUGAUGUUAGGGAAACGAGACAAAGUCUCGAGGCAGGUAGGUCGCAGUCUAGUCU [FiskerMod 1 - Jieux - Same State - Arginine B]
a: 0.265

q: Next: AACUCUCAGACACUUGAGUGAUGUUCAGGCCGAGGACCGGUACGGCCGCCACUCGGGUCUGAGAGAGGUUAUCAAAGAUAGCCAA [Omei KL Tryp A SS A v5]
a: 0.261

q: Next: AAGGCACGGCUUCGGCCGUGCCAAAUAGAUACCAGCAUAAUAAUAUGCCCUUGGCAGCUAAAUAGAAAUUCAGUGAUGUUGGAUA [SS Theo A Tesla 2.1]
a: 0.586
